Test system: SKOV3
Experiment: Primary qHTS to identify gynecologic anti-cancer compounds using libraries of approved drugs and bioactive compounds (AID 1345084); further: nearly all actives have a fitted effect of over 55% in size
Settings: Gynecologic cancer cell panel viability, ATPlite luminescence, 48 h; series mostly up to 57.5 µM
Inconclusive results are not listed. The source made the active and inactive calls. The call rests on the fitted dose curve; in most records, active means well fitted cell-killing curve with a large enough effect; inconclusive means small, poorly fitted or top-dose-only effect, or effect the other way; inactive means flat fitted curve, though single readings scatter.
One label from this list, please: label 1 (active), label 0 (inactive)

Test call, this compound: "COc1cc2ncnc(Oc3ccc(CC(=O)Nc4cnn(C(C)C)c4)cc3)c2cc1OC"
label 0

Test call, this compound: "Nc1nc2c(c(N3CC[C@@H](N)C3)n1)CCCc1ccccc1-2"
label 1

Test call, this compound: "CC(C)c1cc(-c2ccc(F)c3ccccc23)nc(N)n1"
label 0

Test call, this compound: "O=C1Cc2c([nH]c3ccc(Br)cc23)-c2ncccc2N1"
label 0

Test call, this compound: "C=C1CC[C@@H]2[C@](C)(CO)[C@H](O)CC[C@@]2(C)[C@@H]1CC(=O)C1=CCOC1=O"
label 0

Test call, this compound: "O=S(=O)(c1ccccc1)N(CC(F)(F)F)c1ccc(C(O)(C(F)(F)F)C(F)(F)F)cc1"
label 0

Test call, this compound: "O=c1[nH]c2ccccc2n1CCN1CCN(c2cccc(C(F)(F)F)c2)CC1"
label 0

Test call, this compound: "CC(C)(O)c1ccn2c(-c3ccc(F)c(-c4ccc(F)cc4C#N)c3)cnc2c1F"
label 0

Test call, this compound: "Cc1nc(NC(=O)N2CCC[C@H]2C(N)=O)sc1-c1ccnc(C(C)(C)C(F)(F)F)c1"
label 1

Test call, this compound: "CO[C@H]1C[C@@H]2CC[C@@H](C)[C@@](O)(O2)C(=O)C(=O)N2CCCC[C@H]2C(=O)O[C@H]([C@@H](C)C[C@@H]2CC[C@@H](O)[C@H](OC)C2)CC(=O)[C@H](C)/C=C(\C)[C@@H](O)[C@@H](OC)C(=O)[C@H](C)C[C@H](C)/C=C/C=C/C=C/1C"
label 0

Test call, this compound: "COc1ccc(-c2ccccc2)cc1NS(=O)(=O)c1cc(Cl)cc(Cl)c1O"
label 0

Test call, this compound: "Cn1cc(C2=C(c3coc4ccccc34)C(=O)NC2=O)c2cc(Br)ccc21"
label 0

Test call, this compound: CC12CCC(OC3OC(CO)C(O)C(O)C3OC3OC(CO)C(O)C(O)C3O)CC1CCC1C2CCC2(C)/C(=C3/COC(=O)C3)CCC12O (centres undefined)
label 0

Test call, this compound: "C=CC(C)(C)c1[nH]c2ccccc2c1C[C@@H]1NC(=O)[C@H](C)NC1=O"
label 0

Test call, this compound: "O=C(NCCCNC(=O)c1ccc[nH]c1=O)c1cc(-c2ccccc2)on1"
label 0

Test call, this compound: "O=C1COc2nccc(-c3ccccc3F)c2CN1Cc1cc(C(F)(F)F)cc(C(F)(F)F)c1"
label 0

Test call, this compound: "CN1CCc2cc3c(cc2C(=O)Cc2cc4c(cc2C1)OCO4)OCO3"
label 0

Test call, this compound: "COCC(=O)NC/C=C/c1ccc2ncnc(Nc3ccc(Oc4ccc(C)nc4)c(C)c3)c2c1"
label 1

Test call, this compound: "O=C(NCCCn1ccnc1)c1cc(-c2ccco2)on1"
label 0

###

Target: Mitogen-activated protein kinase 10 (Mus musculus) (UniProt Q61831)
Assay: JNK3 AlphaScreen Assay (AID 530);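 further: kinase came from lysate of stimulated human HepG2 cells; signal reports phosphorylation of biotinylated GST-cJun 1-79 at Ser73 with 10 µM ATP; on the % scale 0 is the no-effect control and ±100 the full control effect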
Conditions: JNK3 lysate, c-Jun phosphorylation; series mostly up to 57.1 µM
Records with an inconclusive call do not appear. Activity calls are given as the source filed them. Calls follow the shape of the dose curve; as a rule, active = well fitted curve in either direction with a large enough effect (not every such curve was filed as active); inconclusive = small, poorly fitted or top-dose-only effect, or another doubt; inactive = flat fitted curve, though single readings scatter.
quantity: outcome

Examples with their reported outcome follow.
COC1=CC(=O)C[C@@H](C)[C@@]12Oc1c(Cl)c(OC)cc(OC)c1C2=O = inactive
COC(C)=O = inactive
O=C(O)CC(O)(CC(=O)O)C(=O)O = inactive
CCc1ccccc1OC[C@@H](O)CN[C@H]1CCCc2ccccc21 = inactive
C=Cc1ccccc1 = inactive

Please look up its outcome: "Cc1ccc(OC[C@H](O)[C@H](C)NC(C)C)c2c1CCC2"
inactive

Please look up its outcome: "COc1cc(C[C@H]2C(=O)OC[C@@H]2Cc2ccc(OC)c(OC)c2)ccc1O"
inactive

Please look up its outcome: "NCCCC(=O)O"
inactive

###

Answer each item with its documented activity, negative = cell killing.
Assay: Drug repurposing screens with cells derived from glioblastoma tumor samples (AID 1345199); further: on the % scale 0 is the no-effect control and ±100 the full control effect; nearly all actives have a fitted effect of over 40% in size
Details: GBM patient neurospheres viability, ATP luminescence, 48 h; at 46.1 µM (top of the series); tumour line C
Results filed as inconclusive are left out.
Supply the numeric figure in %, leaving out any unit text.

Please look up its activity, negative = cell killing: "C/C(=C(\CCOC(=O)c1ccccc1)SS/C(CCOC(=O)c1ccccc1)=C(/C)N(C=O)Cc1cnc(C)nc1N)N(C=O)Cc1cnc(C)nc1N"
-22.5

Please look up its activity, negative = cell killing: "CCOC(=O)[C@H](CCc1ccccc1)N[C@H]1CCCN2CCC[C@@H](C(=O)O)N2C1=O"
4.99

Please look up its activity, negative = cell killing: COc1ccnc(CS(=O)c2nc3cc(OC(F)F)ccc3[nH]2)c1OC (configuration not stated)
-12.9

Please look up its activity, negative = cell killing: "COc1cc2[nH]c(C)c(CCN3CCN(c4ccccc4)CC3)c2cc1OC"
-15.6

Please look up its activity, negative = cell killing: "CO/N=C(\C(=O)N[C@@H]1C(=O)N2C(C(=O)OCOC(=O)C(C)(C)C)=C(/C=C\c3scnc3C)CS[C@H]12)c1csc(N)n1"
-3.78

Please look up its activity, negative = cell killing: "CCCCOC(=O)C(=O)Nc1cccc(-c2nn[nH]n2)c1"
-2.11

Please look up its activity, negative = cell killing: "C/C=C(/CC[C@@H](C)[C@H]1CC[C@H]2C3=CC[C@H]4[C@H](C)[C@@H](O)CC[C@]4(C)[C@H]3CC[C@]12C)C(C)C"
9.21

Please look up its activity, negative = cell killing: "O=C[C@H](O)[C@@H](O)[C@H](O[C@H]1O[C@H](CO)[C@@H](O[C@H]2O[C@H](CO)[C@@H](O)[C@H](O)[C@H]2O)[C@H](O)[C@H]1O)[C@H](O)CO"
5.59

Please look up its activity, negative = cell killing: "CCCCc1cc2c(=O)c(C(=O)OC)c[nH]c2cc1OCc1ccccc1"
-7.65

Please look up its activity, negative = cell killing: "O=S(O)CNc1ccc(S(=O)(=O)c2ccc(NCS(=O)O)cc2)cc1"
-2.81

Please look up its activity, negative = cell killing: "NCCC[C@H](N)C(=O)O"
-18.4

Please look up its activity, negative = cell killing: COc1ccc(CCNCC(O)COc2cccc(C)c2)cc1OC (configuration not stated)
-25.3

Please look up its activity, negative = cell killing: "C=C[C@]1(C)C[C@@H](OC(=O)CO)[C@]2(C)[C@H](C)CC[C@]3(CCC(=O)[C@H]32)[C@@H](C)[C@@H]1O"
-2.01

Please look up its activity, negative = cell killing: "COC(C)=O"
7.29

Please look up its activity, negative = cell killing: "CC(=O)OC[C@H]1O[C@@H](O[C@H]2[C@H](O)[C@@H](OC(=O)c3ccccc3C(=O)O)[C@H](O)O[C@@H]2COC(C)=O)[C@H](O)[C@@H](OC(=O)c2ccccc2C(=O)O)[C@@H]1O"
6.79

Please look up its activity, negative = cell killing: "c1cnc2cc3c(cc2n1)[C@@H]1CNC[C@H]3C1"
-0.703

Please look up its activity, negative = cell killing: "CCC(=O)OCC(=O)[C@@]1(OC(=O)CC)[C@H](C)C[C@H]2[C@@H]3CCC4=CC(=O)C=C[C@]4(C)[C@@]3(F)[C@@H](O)C[C@@]21C"
-2.15

###

Biological target: Guanidinoacetate N-methyltransferase (Homo sapiens)
Experiment: Confirmatory Screen for Target Class Profiling of Small Molecule Inhibitors of Methyltransferases (AID 1745852); further: on the % scale 0 is the no-effect control and ±100 the full control effect
Details: MTase-Glo luminescence, SAH detection, recombinant enzyme; at 57.3 µM (top of the series) unless noted
quantity: activity change, negative = inhibition (%)
Supply the numeric figure in %, leaving out any unit text.

Please look up its activity change, negative = inhibition: CC[N+]1(C/C2=C/CCCCCC2)CCC(NC(=O)C2c3cc(Cl)ccc3Oc3ccc(Cl)cc32)CC1 (stereo not given)
0

Please look up its activity change, negative = inhibition: C=C1C(=O)OC[C@@H]1C/C=C(\C)CC1CC(C)C(=O)O1 (stereo not given in full)
-0.246

Please look up its activity change, negative = inhibition: CCn1c(-c2nonc2N)nc2c(C#CC(C)(C)O)ncc(OCC3CCCNC3)c21 (stereo not given)
0.279

Please look up its activity change, negative = inhibition: CCC(CC)C(c1ccc(Nc2nc3ccccc3s2)cc1)n1cncn1 (stereo not given)
-4.47

###

Biological target: Guanidinoacetate N-methyltransferase (Homo sapiens) (UniProt Q14353)
Assay: Confirmatory Screen for Target Class Profiling of Small Molecule Inhibitors of Methyltransferases (AID 1745852); further: on the % scale 0 is the no-effect control and ±100 the full control effect
Details: MTase-Glo luminescence, SAH detection, recombinant enzyme; at 57.3 µM (top of the series) unless noted
quantity: activity change, negative = inhibition (%)
Supply the numeric figure in %, leaving out any unit text.

Please look up its activity change, negative = inhibition: "Cc1[nH]c(/C=C2\C(=O)Nc3ccc(S(=O)(=O)N(C)c4cccc(Cl)c4)cc32)c(C)c1C(=O)N1CCN(C)CC1"
-2.8

Please look up its activity change, negative = inhibition: "Fc1ccc2[nH]ccc2c1-c1nc(N2CCOCC2)c2sc(CN3CCN(CC4CC4)CC3)cc2n1"
0

Please look up its activity change, negative = inhibition: "C=C1C(=O)O[C@@H]2/C=C(\CO)CC/C=C(/C=O)C[C@@H](O)[C@@H]12"
-8.49

Please look up its activity change, negative = inhibition: "CS(=O)(=O)Nc1ccc2oc3c(OC(F)F)ccc(C(=O)Nc4c(Cl)cncc4Cl)c3c2c1"
-1.02

Please look up its activity change, negative = inhibition: CNCCC(c1cccs1)c1ccc(O)c2ccccc12 (stereo not drawn)
2.71

Please look up its activity change, negative = inhibition: "COC(C)(C)CCn1nc(Nc2c(C)cccc2C)c2cnc(Nc3ccc(OCCN4CCCC4)c(F)c3)nc21"
0

Please look up its activity change, negative = inhibition: "CC(=O)OC/C(=C/C(=O)O)CC[C@@H]1C(C=O)=CC[C@@H]2C(C)(C)CCC[C@@]12C"
-3.55
